Numbers sourced from patent US10793526B2.

// K. pneumoniae (ATCC 13383) MIC records
Measured quantity: MIC (µg/mL)

1. CCCCCCCCCCCC(=O)N[C@@H](CCCCN)CN1CC(=O)N(c2cccc(Cl)c2)C1=O [Compound 22] : 0.78
2. CCCCCCCCCC(=O)N[C@@H](CCCCN)CN1CC(=O)N(c2cccc(Cl)c2)C1=O [Compound 21] : 6.25
3. CCCCCCCCCC(=O)N[C@@H](CCCCN)CN1CC(=O)N(C2CCCCC2)C1=O [Compound 9] : 25

###

test system: vancomycin-resistant Enterococcus faecalis (VREF, ATCC 700802); test: Minimum inhibitory concentration (MIC) assay, VREF; type: cell-based; conditions: Gram positive, 16 h incubation
MIC (μg/mL) VREF values, listed per item
Measured quantity: MIC (μg/mL) VREF

1. CCCCCCCCCCCC(=O)N[C@@H](CCCCN)CN1CC(=O)N(c2ccc(OC)cc2)C1=O : 25 µg/mL
2. CCCCCCCCCCCCCCCC(=O)N[C@@H](CCCCN)CN1CC(=O)N(C23CC4CC(CC(C4)C2)C3)C1=O : >50 µg/mL
3. CCCCCCCCCC(=O)N[C@@H](CCCCN)CN1CC(=O)N(C23CC4CC(CC(C4)C2)C3)C1=O : 12.5 µg/mL
4. CCCCCCCCCCCCCC(=O)N[C@@H](CCCCN)CN1CC(=O)N(C23CC4CC(CC(C4)C2)C3)C1=O : 6.25 µg/mL
5. CCCCCCCCCCCC(=O)N[C@@H](CCCCN)CN1CC(=O)N(C23CC4CC(CC(C4)C2)C3)C1=O : 6.25 µg/mL

###

tested on: K. pneumoniae (ATCC 13383)
Measured quantity: MIC

1) CCCCCCCCCCCCCCCC(=O)N[C@@H](CCCCN)CN1CC(=O)N(CC)C1=O [Compound 4] : 12.5 µg/mL
2) CCCCCCCCCCCCCC(=O)N[C@@H](CCCCN)CN1CC(=O)N(CCCC)C1=O [Compound 7] : 12.5 µg/mL
3) CCCCCCCCCCCC(=O)N[C@@H](CCCCN)CN1CC(=O)N(CCCC)C1=O [Compound 6] : 12.5 µg/mL
4) CCCCCCCCCCCCCCCC(=O)N[C@@H](CCCCN)CN1CC(=O)N(C2CCCCC2)C1=O [Compound 12] : > 50 µg/mL
5) CCCCCCCCCCCC(=O)N[C@@H](Cc1ccccc1)CN1CC(=O)N(c2cccc(Cl)c2)C1=O [Compound 25] : > 50 µg/mL

###

MIC (μg/mL) E. coli for assorted molecules
tested on: E. coli (ATCC 25922); test: Minimum inhibitory concentration (MIC) assay, E. coli; format: cell-based, Escherichia coli; details: Gram negative, 16 h incubation
Measured quantity: MIC (μg/mL) E. coli (µg/mL)

1. CCCCCCCCCC(=O)N[C@@H](CCCCN)CN1CC(=O)N(C23CC4CC(CC(C4)C2)C3)C1=O : 6.25
2. CCCCCCCCCCCC(=O)N[C@@H](CCCCN)CN1CC(=O)N(c2ccc(OC)cc2)C1=O : 12.5
3. CCCCCCCCCCCC(=O)N[C@@H](CCCCN)CN1CC(=O)N(C23CC4CC(CC(C4)C2)C3)C1=O : 12.5

###

system: red blood cells (RBCs) of mice; test: Hemolytic assay; type: cell-based; conditions: hemolytic activity; mouse RBCs, 1 h at 37° C.
Measured quantity: HC50 (µg/mL)

1) CCCCCCCCCC(=O)N[C@@H](CCCCN)CN1CC(=O)N(c2cccc(Cl)c2)C1=O : 100
2) CCCCCCCCCCCC(=O)N[C@@H](CCCCN)CN1CC(=O)N(C2CCCCC2)C1=O : 100
3) CCCCCCCCCCCC(=O)N[C@@H](CCCCN)CN1CC(=O)N(CCCC)C1=O : 80
4) CCCCCCCCCCCCCC(=O)N[C@@H](CCCCN)CN1CC(=O)N(CC)C1=O : 90
5) CCCCCCCCCCCC(=O)N[C@@H](CCCCN)CN1CC(=O)N(c2cccc(Cl)c2)C1=O : 95

###

K. pneumoniae (ATCC 13383) data, read-out MIC
Measured quantity: MIC

1. CCCCCCCCCCCCCCCC(=O)N[C@@H](CCCCN)CN1CC(=O)N(c2cccc(Cl)c2)C1=O : > 50 µg/mL
2. CCCCCCCCCC(=O)N[C@@H](CCCCN)CN1CC(=O)N(CC)C1=O : > 50 µg/mL
3. CCCCCCCCCCCCCC(=O)N[C@@H](CCCCN)CN1CC(=O)N(c2ccc(OC)cc2)C1=O : 25 µg/mL
4. CCCCCCCCCC(=O)N[C@@H](CCCCN)CN1CC(=O)N(c2ccc(OC)cc2)C1=O : > 50 µg/mL
5. CCCCCCCCCCCC(=O)N[C@@H](CCCCN)CN1CC(=O)N(CC)C1=O : > 50 µg/mL
6. CCCCCCCCCCCCCCCC(=O)N[C@@H](CCCCN)CN1CC(=O)N(CCCC)C1=O : > 50 µg/mL
7. CCCCCCCCCCCCCC(=O)N[C@@H](CCCCN)CN1CC(=O)N(CC)C1=O : 6.25 µg/mL
8. CCCCCCCCCCCCCCCC(=O)N[C@@H](CCCCN)CN1CC(=O)N(c2ccc(OC)cc2)C1=O : > 50 µg/mL

###

Items are presented alongside their recorded MIC.
system: P. aeruginosa (ATCC 27853); experiment: Minimum inhibitory concentration (MIC) assay, P. aeruginosa; type: cell-based, Pseudomonas aeruginosa; settings: Pseudomonas aeruginosa, ATCC27853; Gram negative; ATCC 27853; 16 h incubation; read-out: MIC (μg/mL) P.A.
Measured quantity: MIC

1. CCCCCCCCCCCCCC(=O)N[C@@H](CCCCN)CN1CC(=O)N(CCCC)C1=O : > 50 µg/mL
2. CCCCCCCCCCCC(=O)N[C@@H](CCCCN)CN1CC(=O)N(CC)C1=O : > 50 µg/mL
3. O=C1CN(/N=C/c2ccc([N+](=O)[O-])o2)C(=O)N1 [Compound 26, nitrofurantoin, reference compound] : > 50 µg/mL
4. CCCCCCCCCCCCCC(=O)N[C@@H](CCCCN)CN1CC(=O)N(c2cccc(Cl)c2)C1=O : > 50 µg/mL
5. CCCCCCCCCC(=O)N[C@@H](CCCCN)CN1CC(=O)N(c2cccc(Cl)c2)C1=O : 6.25 µg/mL

###

tested on: K. pneumoniae (ATCC 13383)
Listing: MIC of selected molecules
Measured quantity: MIC (µg/mL)

1) CCCCCCCCCCCC(=O)N[C@@H](CCCCN)CN1CC(=O)N(C2CCCCC2)C1=O : 6.25
2) O=C1CN(/N=C/c2ccc([N+](=O)[O-])o2)C(=O)N1 [Compound 26, nitrofurantoin, reference compound] : 25
3) CCCCCCCCCCCCCC(=O)N[C@@H](CCCCN)CN1CC(=O)N(C2CCCCC2)C1=O : 6.25

###

system: P. aeruginosa (ATCC 27853); assay: Minimum inhibitory concentration (MIC) assay, P. aeruginosa; type: cell-based, Pseudomonas aeruginosa; settings: Pseudomonas aeruginosa, ATCC27853; Gram negative; ATCC 27853; 16 h incubation; read-out: MIC (μg/mL) P.A.
Measured quantity: MIC

1) CCCCCCCCCCCCCC(=O)N[C@@H](CCCCN)CN1CC(=O)N(C2CCCCC2)C1=O : > 50 µg/mL
2) CCCCCCCCCCCCCCCC(=O)N[C@@H](CCCCN)CN1CC(=O)N(c2cccc(Cl)c2)C1=O : > 50 µg/mL
3) CCCCCCCCCC(=O)N[C@@H](CCCCN)CN1CC(=O)N(C2CCCCC2)C1=O : > 50 µg/mL
4) CCCCCCCCCCCC(=O)N[C@@H](Cc1ccccc1)CN1CC(=O)N(c2cccc(Cl)c2)C1=O : > 50 µg/mL
5) CCCCCCCCCC(=O)N[C@@H](CCCCN)CN1CC(=O)N(CCCC)C1=O : > 50 µg/mL
6) CCCCCCCCCCCC(=O)N[C@@H](CCCCN)CN1CC(=O)N(CCCC)C1=O : 25 µg/mL
7) CCCCCCCCCCCCCCCC(=O)N[C@@H](CCCCN)CN1CC(=O)N(CCCC)C1=O : > 50 µg/mL
8) CCCCCCCCCCCCCC(=O)N[C@@H](CCCCN)CN1CC(=O)N(CC)C1=O : 12.5 µg/mL

###

tested on: P. aeruginosa (ATCC 27853); assay: Minimum inhibitory concentration (MIC) assay, P. aeruginosa; type: cell-based, Pseudomonas aeruginosa; settings: Pseudomonas aeruginosa, ATCC27853; Gram negative; ATCC 27853; 16 h incubation; read-out: MIC (μg/mL) P.A.
Measured quantity: MIC

1. CCCCCCCCCCCCCCCC(=O)N[C@@H](CCCCN)CN1CC(=O)N(C2CCCCC2)C1=O [Compound 12] : > 50 µg/mL
2. CCCCCCCCCCCC(=O)N[C@@H](CCCCN)CN1CC(=O)N(C2CCCCC2)C1=O [Compound 10] : 12.5 µg/mL
3. CCCCCCCCCCCCCC(=O)N[C@@H](CCCCN)CN1CC(=O)N(c2ccc(OC)cc2)C1=O [Compound 19] : > 50 µg/mL
4. CCCCCCCCCCCC(=O)N[C@@H](CCCCN)CN1CC(=O)N(c2cccc(Cl)c2)C1=O [Compound 22] : 1 µg/mL
5. CCCCCCCCCC(=O)N[C@@H](CCCCN)CN1CC(=O)N(CC)C1=O [Compound 1] : > 50 µg/mL
6. CCCCCCCCCC(=O)N[C@@H](CCCCN)CN1CC(=O)N(c2ccc(OC)cc2)C1=O [Compound 17] : > 50 µg/mL
7. CCCCCCCCCCCCCCCC(=O)N[C@@H](CCCCN)CN1CC(=O)N(c2ccc(OC)cc2)C1=O [Compound 20] : > 50 µg/mL
8. CCCCCCCCCCCCCCCC(=O)N[C@@H](CCCCN)CN1CC(=O)N(CC)C1=O [Compound 4] : > 50 µg/mL
